Recorded values, source PubChem BioAssay (NCI).

Quick reference: TGI of the listed items.
System: OVCAR-4 ovarian
Assay: NCI tumour cell line growth inhibition, 48 h

// solved cases for TGI follow
# COMPOUND, TEST_SYSTEM, TGI
data = [
    ("CCCCCCNC(=O)Oc1ccc(/C(=C(\\C)c2ccccc2)c2ccc(OCCN3CCCCC3)cc2)cc1", "OVCAR-4 ovarian", "10.7 µM"),
    ("CCCCSCc1nc2nc(Cl)c(Cl)nc2[nH]1", "OVCAR-4 ovarian", "> 100 µM"),
    ("C[n+]1cccc(/C=C/c2ccc3cccc(O)c3n2)c1", "OVCAR-4 ovarian", "> 100 µM"),
    ("CC12CCc3ccccc3C1=Nc1ccccc12 (stereo unspecified)", "OVCAR-4 ovarian", "> 100 µM"),
    ("CCCCCCCCCCCCOC1C(C(COC2OC(C(O)CN3CCCCC3)C3OC(C)(C)OC23)NC(=O)Nc2ccccc2)OC2OC(C)(C)OC21 (stereo unspecified)", "OVCAR-4 ovarian", "27.3 µM"),
]

Let's switch to this compound now.
In: Identify the reported TGI for the following entry. CCCCOP(=O)(OCCCC)/C(C#N)=C/c1ccco1
Out: > 100 µM

----------
Documented GI50 across a set of compounds
Test system: 786-0 renal
Assay: NCI tumour cell line growth inhibition, 48 h

Example results:
# GIVEN_SMILES, GI50
records = [
    ("C=CC[Se]C(=O)Cc1c(C)n(C(=O)c2ccc(Cl)cc2)c2ccc(OC)cc12", "1730 nM"),
    ("Cc1c2ncccc2nc2[nH]c3ccc(OCCN(C)C)cc3c12", "2810 nM"),
    ("COc1cccc(Cn2cc3c(c2)-c2oncc2CC3)c1", "1980 nM"),
]

In: Dear colleague, please send me the reported GI50 for O=C1/C(=C/c2ccc([N+](=O)[O-])s2)Oc2ccccc21 when you can.
Out: 2420 nM

In: Please look at this compound and report its GI50: CCCCCC(=O)OCC(=O)O[C@@H]1C[C@]2(C(C)C)O[C@@]1(C)[C@@H]1CC[C@@H](C)[C@H]1[C@@H]2OC(=O)/C=C/c1ccccc1
Out: 789 nM

In: Find the measured GI50 of Oc1ccc(/C=N/Nc2nc3ccccc3s2)c(O)c1 and report it.
Out: 3680 nM

In: Identify measured GI50 associated with COc1cc(-c2nc(SCC(=O)Nc3ccc(C(C)=O)cc3)[nH]c(=O)c2C#N)cc(OC)c1OC
Out: 41700 nM

In: Indicate its recorded GI50; the compound in question is CCOC(=O)CNC(=O)CCCn1c(=O)c2c3ccccc3n(C)c2n2nnc(-c3ccccc3)c12
Out: 5130 nM

In: Quickly give me recorded GI50 for Oc1ccc(Br)cc1/C=N/NC(=S)NC12CC3CC(CC(C3)C1)C2
Out: 2320 nM

In: Dear colleague, please send me the reported GI50 for CN(C)CCOc1nc2c3cccnc3cc(-c3cccc(Cl)c3)c2c2ncccc12 when you can.
Out: 1450 nM

----------
Test system: ACHN renal
Assay: NCI tumour cell line growth inhibition, 48 h
RESULT_TYPE: TGI

# MOLECULE, OBS_VALUE
records = [
    ("CCOC(=O)CNC(=O)CCCn1c(=O)c2c3ccccc3n(C)c2n2nnc(-c3ccccc3)c12", "33.7 µM"),
    ("COc1cccc(/C(C=O)=C(\\Cl)c2ccc(OC)c(OC)c2)c1", "26.4 µM"),
    ("COc1cccc2c1cc([N+](=O)[O-])c1c(C(=O)O)cc3c(c12)OCO3", "> 100 µM"),
    ("CC(C)CNc1nc(N)[nH]c(=O)c1NC=O", "> 100 µM"),
    ("COc1ccc(/C(Cl)=C(\\C=O)c2ccc(OC)c(OC)c2)cc1OC", "> 100 µM"),
    ("CCCC(=O)NC(c1ccc2c(c1)OCO2)c1ccc2cccnc2c1O (stereo not drawn)", "> 100 µM"),
]

In: Supply recorded TGI for O=C1/C(=C/c2ccc([N+](=O)[O-])s2)Oc2ccccc21 here.
Out: 1.77 µM

In: Identify TGI associated with the molecule N#CCC(=O)N/N=C1/C(=O)NC(=O)C(=O)C1c1nc2ccccc2s1 (stereo not drawn)
Out: > 100 µM

In: Look up and state reported TGI for C/C(=N\NC(=O)/C(C#N)=C\c1ccc(N(CCC#N)CCC#N)cc1)c1ccccc1
Out: > 10 µM

In: Look up and report measured TGI for this entry: Cn1cnc2c(OCC3CCCCC3)nc(N)nc21
Out: > 100 µM

In: Quickly give me recorded TGI for O=C(CCc1ccccc1)On1nnc2ccccc2c1=O
Out: > 100 µM

In: Report TGI for COc1ccccc1CNC(=O)C1c2ccccc2C(=O)N(CC(C)C)C1c1cccs1 (stereo not drawn)
Out: 90.3 µM

In: Return value of TGI for input COc1cc(OC)c(OC)cc1/C=C1\C=Cc2ccccc21 , no commentary.
Out: > 100 µM
